These measurements were taken from the supplement of paper PMC10981050.

System: MARIMO;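 also: after 48 h exposure read by CellTiter-Glo luminescence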
Assay Summary: cell viability relative to vehicle control; higher = less cytotoxic
Run Conditions: 10 µM; SRSF2 genotype: SRSF2 P95H/wt
Measured cell viability accompanies every entry in the list below.
Respond with the bare value in %.

The examples below pair each entry with its known result.
Molecule: COc1cc2ncnc(Nc3cccc(Cl)c3F)c2cc1OC(=O)N1CCN(C)C[C@H]1C
Experimental Endpoint: cell viability
Readout Value: 104
--
Molecule: COC(=O)c1c2c(c3ccccc3c1O)OC(C)(C)C=C2 [Rubimaillin]
Experimental Endpoint: cell viability
Readout Value: 20

# return cell viability for COC(=O)C1=C(C)NC(C)=C(C(=O)OC)C1c1ccccc1[N+](=O)[O-] [Nifedipine (Adalat)] , test system: MARIMO 57.5

# return cell viability for O=NN(CCCl)C(=O)NC1CCCCC1 [Lomustine (CeeNU)] , test system: MARIMO 100

# return cell viability for COc1cc2c(N3CCN(C(=O)Nc4ccc(OC(C)C)cc4)CC3)ncnc2cc1OCCCN1CCCCC1 [Tandutinib (MLN518)] , test system: MARIMO 83.7

# return cell viability for C[C@H]1[C@H](NC(=O)/C(=N\OC(C)(C)C(=O)O)c2csc(N)n2)C(=O)N1S(=O)(=O)O [Aztreonam (Azactam, Cayston)] , test system: MARIMO 96.8

# return cell viability for OC[C@H]1O[C@@](CO)(OC[C@@]2(O[C@H]3O[C@H](CO)[C@@H](O)[C@H](O)[C@H]3O)O[C@H](CO)[C@@H](O)[C@@H]2O)[C@@H](O)[C@@H]1O [1-Kestose] , test system: MARIMO 105

# return cell viability for C#Cc1cccc(Nc2ncnc3cc(OCCOC)c(OCCOC)cc23)c1 [Erlotinib(OSI-744)] , test system: MARIMO 75.9

# return cell viability for Cc1ccc(C(=O)O)c(O)c1 [4-Methylsalicylic acid] , test system: MARIMO 108

# return cell viability for O=C(NCCCNc1nc(Nc2cccc(CN3CCOCC3)c2)ncc1C1CC1)C1CCC1 , test system: MARIMO 69.5

# return cell viability for O=C(CCCCCCNC(=O)c1cnc(N(c2ccccc2)c2ccccc2Cl)nc1)NO [Citarinostat (ACY-241)] , test system: MARIMO 8.12

# return cell viability for C[C@@H]1CC[C@@]2(OC1)O[C@H]1C[C@H]3[C@@H]4CC=C5C[C@@H](O)C[C@@H](O)[C@]5(C)[C@H]4CC[C@]3(C)[C@H]1[C@@H]2C [Ruscogenin] , test system: MARIMO 98.9

# return cell viability for CCOc1cc(C=O)ccc1OC(C)=O [Ethyl vanillin acetate] , test system: MARIMO 105

# return cell viability for OCC(O)C(O)CO (stereo not given) [Erythritol] , test system: MARIMO 98.4

# return cell viability for CC[C@@H]1/C=C(\C)C[C@H](C)C[C@H](OC)[C@H]2O[C@@](O)(C(=O)C(=O)N3CCCC[C@H]3C(=O)O[C@H](/C(C)=C/[C@@H]3CC[C@@H](O)[C@H](OC)C3)[C@H](C)[C@@H](O)CC1=O)[C@H](C)C[C@@H]2OC [Ascomycin (FK520)] , test system: MARIMO 86.6
